Assay: Cytotoxicity, ATPlite Luminescence Assay
Type: cell-based, human
Settings: human, HepG2 or HepG2.117 cells, 3-days incubation unless marked with *
Exercise: state measured CC50 at 3 days for each of the compounds provided.

Recorded results for 6 compounds are shown here.
| COMPOUND | CC50 at 3 days |
| --- | --- |
| CC(c1cnc(C(F)(F)F)nc1)N1C[C@@H](C)n2nc3c(c2C1=O)CN(C(=O)c1ccc(Cl)c(Cl)c1)[C@H](C)C3 (single isomer, unassigned) [Compound 34A] | > 50 µM |
| CC(c1ncc(C(F)(F)F)cn1)N1C[C@@H](C)n2nc3c(c2C1=O)CN(C(=O)c1ccc(Cl)c(Cl)c1)[C@H](C)C3 (single isomer, unassigned) [Compound 40A] | 22 µM |
| CC(c1ccc(C(C)(C)O)nc1)N1C[C@@H](C)n2nc3c(c2C1=O)CN(C(=O)c1ccc(Cl)c(C(F)(F)F)n1)[C@H](C)C3 (single isomer, unassigned) [Compound 62A] | > 50 µM |
| Cc1nnnn1-c1ccc(C(C)N2C[C@@H](C)n3nc4c(c3C2=O)CN(C(=O)c2ccc(Cl)c(Cl)c2)[C@H](C)C4)cn1 (single isomer, unassigned) [Compound 27A] | > 50 µM |
| CC(c1cc(F)c(=O)n(C)c1)N1C[C@@H](C)n2nc3c(c2C1=O)CN(C(=O)c1ccc(Cl)c(Cl)c1)[C@H](C)C3 (single isomer, unassigned) [Compound 45B] | > 50 µM |
| CC(c1ccc(C(C)(C)O)cc1)N1C[C@@H](C)n2nc3c(c2C1=O)CN(C(=O)c1ccc(Cl)c(Cl)c1)[C@H](C)C3 (single isomer, unassigned) [Compound 8A] | 20.1 µM |

Read the next record carefully.
Qu. Recall and state the measured CC50 at 3 days for C[C@@H]1Cc2nn3c(c2CN1C(=O)c1ccc(Cl)c(Cl)c1)C(=O)N([C@H](C)c1ccc(C#N)cc1)CC3 [Ref 4, reference compound] .
Ans. > 50 µM

* * *

System: HBV (HepG2.117 cell line, inducibly HBV producing)
Test: Anti-HBV activity, intracellular HBV DNA by real-time PCR in HepG2.117 cell line
Format: cell-based, hepatitis B virus
Settings: HepG2.117 cells, 3 days of treatment
Assign a class from recorded EC50; defined classes: LOW = under 0.04 µM, MEDIUM = from 0.04 µM up to 0.07 µM, HIGH = 0.07 µM and over

Here are 8 compounds together with their reported answers.
| COMPOUND | LABEL_VALUE |
| --- | --- |
| Cc1nnn(-c2ccc(C(C)N3C[C@@H](C)n4nc5c(c4C3=O)CN(C(=O)c3ccc(Cl)c(Cl)c3)[C@H](C)C5)cn2)n1 (single isomer, unassigned) [Compound 26A] | HIGH |
| CC(c1cnc(C(C)(C)O)nc1)N1C[C@@H](C)n2nc3c(c2C1=O)CN(C(=O)c1ccc(Cl)c(C(F)(F)F)c1)[C@H](C)C3 (single isomer, unassigned) [Compound 35A] | HIGH |
| CC(c1ccc(-n2cncn2)cc1)N1C[C@@H](C)n2nc3c(c2C1=O)CN(C(=O)c1ccc(Cl)c(C#N)c1)[C@H](C)C3 (single isomer, unassigned) [Compound 11B] | LOW |
| CC(c1cnn(C)c(=O)c1)N1C[C@@H](C)n2nc3c(c2C1=O)CN(C(=O)c1ccc(Cl)c(C(F)(F)F)c1)[C@H](C)C3 (single isomer, unassigned) [Compound 52B] | LOW |
| CC(c1ccc(C(C)(C)O)nc1)N1C[C@@H](C)n2nc3c(c2C1=O)CN(C(=O)c1ccc(Cl)c(F)c1)[C@H](C)C3 (single isomer, unassigned) [Compound 59B] | MEDIUM |
| CC(c1ccc(-n2cncn2)nc1)N1C[C@@H](C)n2nc3c(c2C1=O)CN(C(=O)c1ccc(Cl)c(Cl)c1)[C@H](C)C3 (single isomer, unassigned) [Compound 5B] | LOW |
| CC(c1ccc(C(F)(F)F)nc1)N1C[C@@H](C)n2nc3c(c2C1=O)CN(C(=O)c1ccc(Cl)c(C#N)c1)[C@H](C)C3 (single isomer, unassigned) [Compound 12A] | HIGH |
| Cc1ncc(C(C)N2C[C@@H](C)n3nc4c(c3C2=O)CN(C(=O)c2ccc(Cl)c(Cl)c2)[C@H](C)C4)cn1 (single isomer, unassigned) [Compound 4B] | MEDIUM |

Qu. For the record CC(c1cnn(C(C)C)c(=O)c1)N1C[C@@H](C)n2nc3c(c2C1=O)CN(C(=O)c1ccc(Cl)c(C(F)(F)F)c1)[C@H](C)C3 (single isomer, unassigned) [Compound 53B] , report the class its EC50 corresponds to.
Ans. LOW

Qu. For the record CC(c1ccn(CC(F)(F)F)c(=O)c1)N1C[C@@H](C)n2nc3c(c2C1=O)CN(C(=O)c1ccc(Cl)c(Cl)c1)[C@H](C)C3 (single isomer, unassigned) [Compound 51A] , report the class its EC50 corresponds to.
Ans. MEDIUM

Qu. For the record CC(c1cc(F)c(=O)n(C2CC2)c1)N1C[C@@H](C)n2nc3c(c2C1=O)CN(C(=O)c1ccc(Cl)c(Cl)c1)[C@H](C)C3 (single isomer, unassigned) [Compound 46A] , report the class its EC50 corresponds to.
Ans. HIGH

Qu. For the record CC(c1cnn(C2CC2)c(=O)c1)N1C[C@@H](C)n2nc3c(c2C1=O)CN(C(=O)c1ccc(Cl)c(C(F)(F)F)c1)[C@H](C)C3 (single isomer, unassigned) [Compound 54B] , report the class its EC50 corresponds to.
Ans. LOW

Qu. For the record CC(c1cnn(C)c(=O)c1)N1C[C@@H](C)n2nc3c(c2C1=O)CN(C(=O)c1ccc(Cl)c(C(F)(F)F)c1)[C@H](C)C3 (single isomer, unassigned) [Compound 52A] , report the class its EC50 corresponds to.
Ans. HIGH

Qu. For the record CC(c1cn(C2CC2)c(=O)cn1)N1C[C@@H](C)n2nc3c(c2C1=O)CN(C(=O)c1ccc(Cl)c(Cl)c1)[C@H](C)C3 (single isomer, unassigned) [Compound 56A] , report the class its EC50 corresponds to.
Ans. HIGH

Qu. For the record C[C@@H]1Cc2nn3c(c2CN1C(=O)c1ccc(Cl)c(C(F)(F)F)c1)C(=O)N([C@@H](C)c1ccc([S@]2(=O)=NCCC2)nc1)C[C@H]3C (relative stereo) [Compound 30D] , report the class its EC50 corresponds to.
Ans. MEDIUM

Qu. For the record CC(c1cnc(C(C)(C)O)cn1)N1C[C@@H](C)n2nc3c(c2C1=O)CN(C(=O)c1ccc(Cl)c(C(F)(F)F)c1)[C@H](C)C3 (single isomer, unassigned) [Compound 41B] , report the class its EC50 corresponds to.
Ans. LOW

Qu. For the record Cc1nnc(C(C)N2C[C@@H](C)n3nc4c(c3C2=O)CN(C(=O)c2ccc(Cl)c(Cl)c2)[C@H](C)C4)o1 (single isomer, unassigned) [Compound 43B] , report the class its EC50 corresponds to.
Ans. MEDIUM

Qu. For the record CNC(=O)C(c1ccc(OC(F)F)cc1)N1C[C@@H](C)n2nc3c(c2C1=O)CN(C(=O)c1ccc(Cl)c(Cl)c1)[C@H](C)C3 (single isomer, unassigned) [Compound 23A] , report the class its EC50 corresponds to.
Ans. MEDIUM

Qu. For the record CC(c1ccc(C(C)(C)O)nc1)N1C[C@@H](C)n2nc3c(c2C1=O)CN(C(=O)c1cc(F)c(Cl)c(F)c1)[C@H](C)C3 (single isomer, unassigned) [Compound 60B] , report the class its EC50 corresponds to.
Ans. MEDIUM
